system: H9C2 cells; assay: MTT cell viability assay in H9C2 cells; assay type: cell-based, rat; details: 24 h; analogues at Vero IC50 concentration; Dox 1 µM
Property Measured: decrease in viability of H9C2 cells (MTT)

Consider the following illustrative entries.
COc1cccc2c1C(=O)c1c(O)c3c(c(O)c1C2=O)C[C@@](O)(C(=O)CO)C[C@@H]3O[C@H]1C[C@H](N)[C@H](O)[C@H](C)O1 [Dox, doxorubicin, reference compound]
~25%
O=C(/C=C/c1ccc(S(=O)(=O)NCc2cccs2)cc1)NO [NMJ-1]
10–20%
O=C(/C=C/c1ccc(S(=O)(=O)NCc2ccco2)cc1)NO [NMJ-3]
10–20%
Cc1ccc(-c2oc3cc(C)ccc3c(=O)c2O)cc1 [QMJ-5]
10–20%

// query decrease in viability of H9C2 cells (MTT) value for entry Cc1ccc(-c2oc3ccccc3c(=O)c2O)cc1 [QMJ-2]
10–20%

###

Tested on: cardiomyocytes (WJCM and H9C2 cells)
Test: Cardiotoxicity across parameters as summarised in the discussion (WJCM and H9C2 cells)
Format: cell-based, human and rat
Conditions: discussion summary; cell model not specified
From the text: We investigated the effects of 3-hydroxyflavone (QMJ-2, QMJ-5, and QMJ-6) and cinnamyl sulfonamide-hydroxamate (NMJ-1, NMJ-2, NMJ-3) in WJCM and H9C2 cells using the concentrations reported for non-cancerous Vero cells. The prerequisite for any synthesized drug molecules is that they should be nontoxic to cardiac cells.
Property Measured: ROS level in treated cardiomyocytes

Cc1ccc(-c2oc3ccccc3c(=O)c2O)cc1
increased ROS levels
O=C(/C=C/c1ccc(S(=O)(=O)NCc2cccs2)cc1)NO
increased ROS levels
Cc1ccc(-c2oc3cc(C)ccc3c(=O)c2O)cc1
increased ROS levels

###

system: cardiomyocytes (WJCM and H9C2 cells); experiment: Cardiotoxicity across parameters as summarised in the discussion (WJCM and H9C2 cells); type: cell-based, human and rat; settings: discussion summary; cell model not specified
Property Measured: active mitochondria status in treated cardiomyocytes

Consider the following illustrative entries.
O=C(/C=C/c1ccc(S(=O)(=O)NCc2ccco2)cc1)NO
remains unaffected
Cc1ccc(-c2oc3ccccc3c(=O)c2O)cc1
loss of mitochondria
O=C(/C=C/c1ccc(S(=O)(=O)NCc2cccs2)cc1)NO
loss of mitochondria
O=C(/C=C/c1ccc(S(=O)(=O)NCCc2cccs2)cc1)NO
remains unaffected

Short answer please: active mitochondria status in treated cardiomyocytes, cardiomyocytes (WJCM and H9C2 cells), entry Cc1ccc(-c2oc3cc(C)ccc3c(=O)c2O)cc1
loss of mitochondria

Same for COc1ccc2c(=O)c(O)c(-c3ccc(C)cc3)oc2c1
remains unaffected

###

system: H9C2 cells; experiment: LDH release assay in H9C2 cells; format: cell-based, rat; conditions: 24 h; analogues at Vero IC50 concentration
Property Measured: LDH release in H9C2 cells

Consider the following illustrative entries.
O=C(/C=C/c1ccc(S(=O)(=O)NCc2cccs2)cc1)NO [NMJ-1]
increase in LDH
O=C(/C=C/c1ccc(S(=O)(=O)NCCc2cccs2)cc1)NO [NMJ-2]
increase in LDH
Cc1ccc(-c2oc3cc(C)ccc3c(=O)c2O)cc1 [QMJ-5]
increase in LDH
Cc1ccc(-c2oc3ccccc3c(=O)c2O)cc1 [QMJ-2]
increase in LDH
O=C(/C=C/c1ccc(S(=O)(=O)NCc2ccco2)cc1)NO [NMJ-3]
no to little change

// moving on: another record for LDH release in H9C2 cells
Short answer please: LDH release in H9C2 cells, H9C2 cells, entry COc1ccc2c(=O)c(O)c(-c3ccc(C)cc3)oc2c1 [QMJ-6]
no to little change

###

system: cardiomyocytes (WJCM and H9C2 cells); assay: Cardiotoxicity across parameters as summarised in the discussion (WJCM and H9C2 cells); type: cell-based, human and rat; details: discussion summary; cell model not specified
Property Measured: cytotoxic effect against cardiomyocytes by MTT, CCK-8 and LDH assay

Consider the following illustrative entries.
Cc1ccc(-c2oc3ccccc3c(=O)c2O)cc1
induced toxicity
Cc1ccc(-c2oc3cc(C)ccc3c(=O)c2O)cc1
induced toxicity
O=C(/C=C/c1ccc(S(=O)(=O)NCc2cccs2)cc1)NO
induced toxicity
O=C(/C=C/c1ccc(S(=O)(=O)NCCc2cccs2)cc1)NO
no cytotoxic effect
O=C(/C=C/c1ccc(S(=O)(=O)NCc2ccco2)cc1)NO
no cytotoxic effect

// moving on: another record for cytotoxic effect against cardiomyocytes by MTT, CCK-8 and LDH assay
// query cytotoxic effect against cardiomyocytes by MTT, CCK-8 and LDH assay value for entry COc1ccc2c(=O)c(O)c(-c3ccc(C)cc3)oc2c1
no cytotoxic effect

###

system: cardiomyocytes (WJCM and H9C2 cells); experiment: Cardiotoxicity across parameters as summarised in the discussion (WJCM and H9C2 cells); assay type: cell-based, human and rat; conditions: discussion summary; cell model not specified
Property Measured: intracellular calcium level in treated cardiomyocytes

Consider the following illustrative entries.
COc1ccc2c(=O)c(O)c(-c3ccc(C)cc3)oc2c1 [QMJ-6]
remained low
O=C(/C=C/c1ccc(S(=O)(=O)NCCc2cccs2)cc1)NO [NMJ-2]
remained low
Cc1ccc(-c2oc3cc(C)ccc3c(=O)c2O)cc1 [QMJ-5]
increased the level
O=C(/C=C/c1ccc(S(=O)(=O)NCc2cccs2)cc1)NO [NMJ-1]
increased the level
O=C(/C=C/c1ccc(S(=O)(=O)NCc2ccco2)cc1)NO [NMJ-3]
remained low

// moving on: another record for intracellular calcium level in treated cardiomyocytes
// query intracellular calcium level in treated cardiomyocytes value for entry Cc1ccc(-c2oc3ccccc3c(=O)c2O)cc1 [QMJ-2]
increased the level

###

system: WJMSC-derived cardiomyocytes (WJCM); assay: MTT and CCK-8 cell viability assays in WJCM; type: cell-based, human; settings: 24 h; analogues at Vero IC50 concentration; Dox 1 µM
Property Measured: toxicity / cell viability in WJCM (MTT, CCK-8), result in words

COc1ccc2c(=O)c(O)c(-c3ccc(C)cc3)oc2c1 [QMJ-6]
less toxic
O=C(/C=C/c1ccc(S(=O)(=O)NCc2ccco2)cc1)NO [NMJ-3]
less toxic
O=C(/C=C/c1ccc(S(=O)(=O)NCCc2cccs2)cc1)NO [NMJ-2]
less toxic

###

test system: WJMSC-derived cardiomyocytes (WJCM); assay: LDH release assay in WJCM; type: cell-based, human; settings: 24 h; analogues at Vero IC50 concentration
Property Measured: LDH release in WJCM

Consider the following illustrative entries.
O=C(/C=C/c1ccc(S(=O)(=O)NCc2cccs2)cc1)NO [NMJ-1]
increase in LDH
COc1ccc2c(=O)c(O)c(-c3ccc(C)cc3)oc2c1 [QMJ-6]
no to little change
Cc1ccc(-c2oc3ccccc3c(=O)c2O)cc1 [QMJ-2]
increase in LDH
O=C(/C=C/c1ccc(S(=O)(=O)NCCc2cccs2)cc1)NO [NMJ-2]
increase in LDH

// query LDH release in WJCM value for entry O=C(/C=C/c1ccc(S(=O)(=O)NCc2ccco2)cc1)NO [NMJ-3]
no to little change

Same for Cc1ccc(-c2oc3cc(C)ccc3c(=O)c2O)cc1 [QMJ-5]
increase in LDH
